Target: Arginase-2, mitochondrial (Homo sapiens) (UniProt P78540)
Sequence (P78540 whole entry): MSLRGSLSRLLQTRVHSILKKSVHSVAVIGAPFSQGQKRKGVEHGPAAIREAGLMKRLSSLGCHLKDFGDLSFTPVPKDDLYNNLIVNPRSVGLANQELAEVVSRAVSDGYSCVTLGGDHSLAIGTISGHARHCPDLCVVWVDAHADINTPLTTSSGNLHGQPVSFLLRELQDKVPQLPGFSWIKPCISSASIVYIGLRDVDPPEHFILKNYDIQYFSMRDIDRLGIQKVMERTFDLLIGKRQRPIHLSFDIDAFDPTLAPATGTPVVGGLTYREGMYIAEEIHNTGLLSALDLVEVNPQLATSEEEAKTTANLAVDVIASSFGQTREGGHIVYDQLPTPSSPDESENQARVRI
Test: in vitro enzyme assay to detect the production of urea directly proportional to the activity of Arginase II
Type: functional
Parameters: scale not given: in the data most compounds retested in dose-response had high values
Conditions: 33.3 µM
For each record, write down the corresponding Percent Effect.
// units = %; emit number, no label

q: Please report the recorded Percent Effect for CNS(=O)(=O)CCCN1CCCC1c1cc(C)on1 (stereo not given) .
a: -1.52

q: // repeat for Cn1cc(CN2CC[C@H](O)[C@@H]2Cc2ccncc2)cn1 and report
a: -0.955

q: // repeat for Cc1ccn(-c2ccccc2NCc2ccccn2)n1 and report
a: 2.27

q: // repeat for CC1CN(Cc2nccn2C)CCN1c1ccc2nncn2n1 (stereo not given) and report
a: 2.85

q: // repeat for CNc1cncc(C2CCCN2C(=O)c2ccc3oc(C)cc3c2)n1 (stereo not given) and report
a: -1.33

q: // repeat for COCCN1CCN(Cc2cccc(C(N)=O)c2)CC1C (stereo not given) and report
a: -2.66

q: // repeat for CCOCC1CC2(CCN(C(=O)c3ccccc3F)CC2)CO1 (stereo not given) and report
a: -7.29

q: // repeat for CN(C)CCN1CCCC12CCN(C(=O)c1cccn1C)CC2 and report
a: -2.02

q: // repeat for CC(C)C(C)NC(=O)Nc1ccc(CS(C)(=O)=O)cc1 (stereo not given) and report
a: -14.2

q: // repeat for CN1CCCC1c1cccc(Cc2ccccc2F)n1 (stereo not given) and report
a: -3.02

q: // repeat for O=C1CC(c2cccc(O)c2)c2sc(C(=O)O)c(-c3ccccc3)c2N1 (stereo not given) and report
a: -10.1

q: // repeat for CC1(C)Cc2ccccc2-c2nc(NCCO)[nH]c(=O)c21 and report
a: 3.55

q: // repeat for O=C(NCC1(N2CCOCC2)CCSC1)Nc1ccc(F)cc1 (stereo not given) and report
a: -2.86

q: // repeat for CC(C)c1ccc(C(O)Cn2c(=O)c(C#N)cn(C3CC3)c2=O)cc1 (stereo not given) and report
a: 4.21

q: // repeat for Cc1nccnc1N1CC[C@@H](NC(=O)c2cnccn2)[C@H](O)C1 and report
a: 2.86

q: // repeat for COCCOc1ncccc1CNCc1c(C)nn(C)c1N(C)C and report
a: 3.61

q: // repeat for COc1cccc(CCC(=O)N2CCCC(n3cc(C)cn3)C2)c1 (stereo not given) and report
a: 9.25

q: // repeat for COc1ccc(CNCc2ccc(N3CCCCC3)nc2)cc1OC and report
a: 2.87

q: // repeat for O=C(c1ccc(-n2cccn2)nc1)N1CCC(Nc2cccnn2)CC1 and report
a: 0.632

q: // repeat for Cc1cc(C)n(CC2CCCN2CC(=O)N(C)Cc2cnn(C)c2)n1 (stereo not given) and report
a: -4.01

q: // repeat for COCC(c1cccc(C(F)(F)F)c1)N(C)C(=O)c1cc(C)no1 (stereo not given) and report
a: 4.98

q: // repeat for Cc1cnn(C2CN(Cc3nc(-c4ccco4)no3)C2)c1 and report
a: -0.356

q: // repeat for O=C(CN1CCCCC1C1OCCO1)Nc1ccc(F)c(F)c1 (stereo not given) and report
a: 0

q: // repeat for CNC(=O)C1(CCCc2ccncc2)CCCN1 (stereo not given) and report
a: -2.09

q: // repeat for CC(C)n1[nH]c(=O)c2c1NC(=O)CC2c1cccc(OC(F)F)c1 (stereo not given) and report
a: -1.75
